Each recorded value in this set is attributed to patent US12673052B2.

Assay Comment: Toxicokinetics in 28-day repeat-dose toxicity study
Assay type: in vivo, dogs
Experimental Conditions: both sexes, dog, plasma, oral, Day 28
Recorded Metric: half-life

Entry CNC(=O)c1cc2c(Oc3ccc(NC(=O)C4(C(=O)Nc5ccc(F)cc5)CC4)cc3)ccnc2cc1OC — recorded half-life = 3.96 to 5.23 h

---

Assay Comment: Toxicokinetics in 28-day repeat-dose toxicity study
Assay type: in vivo, dogs
Experimental Conditions: both sexes, dog, plasma; oral gavage 2, 6 and 18 mg/kg; Days 1 and 28; read-out: median Tmax
Recorded Metric: Tmax (h)
Express it in h; write the number only.

Please fill in: Tmax reported for CNC(=O)c1cc2c(Oc3ccc(NC(=O)C4(C(=O)Nc5ccc(F)cc5)CC4)cc3)ccnc2cc1OC = 2
